Assay Procedure: Inhibition of trypsin
Observed Property: IC50

Worked set:
# Chemical String, IC50
measured = [
    ("NCc1cccc(C2CCN(C(=O)c3ccc(C#Cc4ccccc4F)o3)CC2)c1.O=C(O)C(F)(F)F", "> 100 µM"),
    ("NCc1cccc(C2CCN(C(=O)c3ccc(C#Cc4ccccc4)o3)CC2)c1.O=C(O)C(F)(F)F", "> 100 µM"),
]

Please examine the following record next.
q: # IC50 lookup, item NCc1cccc(C2CCN(C(=O)c3ccc(C#Cc4ccccn4)o3)CC2)c1.O=C(O)C(F)(F)F
a: > 100 µM

----------
Assay Procedure: Volume of distribution at steady state in rat at 2 mg/kg, iv and 10 mg/kg, po
Condition Context: in vivo, read-out: Vdss
Observed Property: Vd (L/kg)
Numeric answer only, unit L/kg assumed.

# Chemical String, Quantity Unit, Vd
measured = [
    ("NCc1cccc(C2CCN(C(=O)c3ccc(C#Cc4ccccc4F)o3)CC2)c1.O=C(O)C(F)(F)F", "L/kg", 18.5),
]

Now consider a different compound.
q: // Vd lookup, key: NCc1cccc(C2CCN(C(=O)c3ccc(C#Cc4ccccc4)o3)CC2)c1.O=C(O)C(F)(F)F
a: 14.1
